B1: Gamma-crystallin C, residues 4 to 79; numbered along this chain, P07315 (parent)
chain: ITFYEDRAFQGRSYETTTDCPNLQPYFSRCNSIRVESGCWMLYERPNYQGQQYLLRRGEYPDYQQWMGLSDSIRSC

- Variants of: B1
- method.notes: abundance fitness (aPCA) (normalised: wild type 0, dead -1); higher = more abundant; growth selection in yeast, the domain comes from the species named
- experimental.parameters: Homo sapiens
Response field class: string, computed from recorded abundance fitness by ranges category 1 = under -0.2, category 2 = from -0.2 up to -0.006, category 3 = -0.006 and over

Would you please look over these solved cases?
mutation_descriptor=N47I class_assignment="category 1"
mutation_descriptor=R74D class_assignment="category 3"
mutation_descriptor=I33V class_assignment="category 2"
mutation_descriptor=Q24V class_assignment="category 3"
mutation_descriptor=T18M class_assignment="category 2"
mutation_descriptor=Y48V class_assignment="category 1"
mutation_descriptor=N47Q class_assignment="category 2"
mutation_descriptor=G68A class_assignment="category 3"

Could you now look at the following variant, please?
IN: The entry to classify is G11Y ; which class holds it?
OUT: category 1
